Biological target: T1, PTPRG-Fc (ECD of human PTPRG, aa 20-736, fused to human Fc gamma 1) (human, UniProt P23470 20-736)
T1 construct: Made in-house in Expi293 cells; Used in ELISA and SPR; also called recombinant PTPRG-Fc; PTRPG; not shown: human IgG1 Fc (Fc gamma 1) after the hinge
T1 sequence: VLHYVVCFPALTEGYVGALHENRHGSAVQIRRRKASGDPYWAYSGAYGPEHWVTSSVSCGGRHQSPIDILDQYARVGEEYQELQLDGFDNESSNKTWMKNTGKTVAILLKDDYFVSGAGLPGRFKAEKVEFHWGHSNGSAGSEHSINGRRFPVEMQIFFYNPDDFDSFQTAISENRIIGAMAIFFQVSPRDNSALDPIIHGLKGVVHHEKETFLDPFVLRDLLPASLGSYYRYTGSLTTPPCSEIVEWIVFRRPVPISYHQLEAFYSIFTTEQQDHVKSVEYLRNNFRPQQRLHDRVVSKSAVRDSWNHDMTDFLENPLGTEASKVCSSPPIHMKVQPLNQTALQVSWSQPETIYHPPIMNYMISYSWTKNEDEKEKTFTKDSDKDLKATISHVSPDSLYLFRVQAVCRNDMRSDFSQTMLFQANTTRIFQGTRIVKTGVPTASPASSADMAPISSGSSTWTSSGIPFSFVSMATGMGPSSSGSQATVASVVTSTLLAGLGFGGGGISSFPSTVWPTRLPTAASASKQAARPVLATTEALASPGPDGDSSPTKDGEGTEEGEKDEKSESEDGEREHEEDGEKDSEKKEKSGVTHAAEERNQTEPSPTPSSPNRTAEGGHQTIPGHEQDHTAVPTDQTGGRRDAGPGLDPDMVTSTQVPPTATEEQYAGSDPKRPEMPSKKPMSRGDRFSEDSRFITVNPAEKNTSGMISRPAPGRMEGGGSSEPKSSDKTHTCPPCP
Test: ELISA on coated PTPRG-Fc, 150 ng IgG1; None 0.117
Description: Recombinant purified ECDs (50-150 ng) of each putative target protein were coated, incubated with 150 ng of the indicated primary antibody, and binding was detected using a peroxidase-conjugated anti-human Fab secondary antibody. Heatmap represents averages of technical triplicates. […] ELISA ELISA was conducted as described previously. […] After incubating at 37° C. for 15 min-1 h (depending on intensity of controls), data were acquired using a SpectraMax M5 plate reader (Molecular Devices).

binder	ELISA Absorbance (405 nm-570 nm)
HW-70 chimeric rabbit-human IgG1 LA/LA/PG (antibody, V domains shown, Fc-silenced (L234A/L235A/P329G) IgG1, lambda; Alexa Fluor 647-labeled in single-step flow cytometry; Cluster C-1) VH: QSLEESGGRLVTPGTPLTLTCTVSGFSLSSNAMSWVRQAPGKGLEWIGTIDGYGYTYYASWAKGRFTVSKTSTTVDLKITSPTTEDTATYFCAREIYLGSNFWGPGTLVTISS VL: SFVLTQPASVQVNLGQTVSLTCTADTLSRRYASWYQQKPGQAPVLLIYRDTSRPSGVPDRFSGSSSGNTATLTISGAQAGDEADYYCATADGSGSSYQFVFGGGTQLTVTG	0.29
HW-8 chimeric rabbit-human IgG1 LA/LA/PG (antibody, V domains shown, Fc-silenced (L234A/L235A/P329G) IgG1, kappa; Alexa Fluor 647-labeled in single-step flow cytometry; Cluster C-45) VH: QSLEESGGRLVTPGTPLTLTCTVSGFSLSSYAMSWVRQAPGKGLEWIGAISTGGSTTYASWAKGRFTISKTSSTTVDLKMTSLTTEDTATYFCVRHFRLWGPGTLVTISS VL: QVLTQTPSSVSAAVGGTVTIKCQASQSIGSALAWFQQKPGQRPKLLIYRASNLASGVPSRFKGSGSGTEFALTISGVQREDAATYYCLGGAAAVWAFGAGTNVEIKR	0.069

Numbers sourced from patent US20260049134A1.
